Assignment: determine reported pIC50 for the given compounds.
system: human Oxytocin Receptor (hOTR) (Homo sapiens, UniProt P30559)
Sequence (P30559 whole entry): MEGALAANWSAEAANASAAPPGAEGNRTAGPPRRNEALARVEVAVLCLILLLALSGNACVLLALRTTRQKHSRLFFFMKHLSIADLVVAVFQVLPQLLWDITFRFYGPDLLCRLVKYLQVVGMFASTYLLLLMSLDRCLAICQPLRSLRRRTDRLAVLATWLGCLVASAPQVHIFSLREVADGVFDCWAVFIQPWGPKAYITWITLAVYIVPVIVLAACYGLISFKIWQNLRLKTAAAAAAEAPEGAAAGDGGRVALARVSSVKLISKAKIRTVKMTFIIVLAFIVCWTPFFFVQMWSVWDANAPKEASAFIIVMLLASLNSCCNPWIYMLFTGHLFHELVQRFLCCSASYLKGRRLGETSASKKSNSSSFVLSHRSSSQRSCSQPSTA
test name: Oxytocin receptor (OTR) antagonist assay (FLIPR calcium, CHEM-1-hOTR cells)
pIC50: −log10 of the molar value.

Request: Supply recorded pIC50 for CC1COc2cc(Cl)c(F)cc2N1C(=O)N1CC2(C1)CN(c1cccnc1)C2 (stereo not drawn) here.
Result: 6.30 to 7.00

Request: Supply recorded pIC50 for CC1COc2cc(Cl)ccc2N1C(=O)N1CC2(C1)CN(c1cc(C#N)ccn1)C2 (stereo not drawn) [20-6] here.
Result: > 7.00

Request: Supply recorded pIC50 for CC1CN(C(=O)N2CC3(C2)CN(c2ccc(F)cn2)C3)c2ccc(Cl)cc2O1 (single isomer, unassigned) [9-3-A] here.
Result: 6.00 to 6.30

Request: Supply recorded pIC50 for CCc1cnc(N2CC3(CN(C(=O)N4c5ccc(Cl)cc5OCC4C)C3)C2)nc1 (stereo not drawn) here.
Result: ≤ 6.00

Request: Supply recorded pIC50 for Cc1nc(N2CC3(CN(C(=O)N4c5ccc(Cl)cc5OCC4C)C3)C2)ncc1F (stereo not drawn) [20-7] here.
Result: 6.30 to 7.00

Request: Supply recorded pIC50 for CC1COc2cc(F)ccc2N1C(=O)N1CC2(C1)CN(c1ccc(F)cn1)C2 (stereo not drawn) [12-1] here.
Result: 6.00 to 6.30

Request: Supply recorded pIC50 for Cc1cccc(N2CC3(CN(C(=O)N4CCOc5cc(Cl)ccc54)C3)C2)n1 here.
Result: 6.00 to 6.30

Request: Supply recorded pIC50 for N#Cc1cccc(N2CC3(CN(C(=O)N4CCOc5cc(Cl)ccc54)C3)C2)n1 here.
Result: 6.30 to 7.00

Request: Supply recorded pIC50 for Cc1ccnc(N2CC3(CN(C(=O)N4c5ccc(Cl)cc5OCC4C)C3)C2)n1 (stereo not drawn) [20-12] here.
Result: 6.30 to 7.00

---

Assignment: determine reported efflux ratio at 1 h, 10 μM for the given compounds.
system: MDR1 (P-glycoprotein) (Homo sapiens, UniProt P08183)
Construct: host or cells: MDCK (MDR1-MDCK; wild-type MDCK as comparator)
Sequence (P08183 whole entry): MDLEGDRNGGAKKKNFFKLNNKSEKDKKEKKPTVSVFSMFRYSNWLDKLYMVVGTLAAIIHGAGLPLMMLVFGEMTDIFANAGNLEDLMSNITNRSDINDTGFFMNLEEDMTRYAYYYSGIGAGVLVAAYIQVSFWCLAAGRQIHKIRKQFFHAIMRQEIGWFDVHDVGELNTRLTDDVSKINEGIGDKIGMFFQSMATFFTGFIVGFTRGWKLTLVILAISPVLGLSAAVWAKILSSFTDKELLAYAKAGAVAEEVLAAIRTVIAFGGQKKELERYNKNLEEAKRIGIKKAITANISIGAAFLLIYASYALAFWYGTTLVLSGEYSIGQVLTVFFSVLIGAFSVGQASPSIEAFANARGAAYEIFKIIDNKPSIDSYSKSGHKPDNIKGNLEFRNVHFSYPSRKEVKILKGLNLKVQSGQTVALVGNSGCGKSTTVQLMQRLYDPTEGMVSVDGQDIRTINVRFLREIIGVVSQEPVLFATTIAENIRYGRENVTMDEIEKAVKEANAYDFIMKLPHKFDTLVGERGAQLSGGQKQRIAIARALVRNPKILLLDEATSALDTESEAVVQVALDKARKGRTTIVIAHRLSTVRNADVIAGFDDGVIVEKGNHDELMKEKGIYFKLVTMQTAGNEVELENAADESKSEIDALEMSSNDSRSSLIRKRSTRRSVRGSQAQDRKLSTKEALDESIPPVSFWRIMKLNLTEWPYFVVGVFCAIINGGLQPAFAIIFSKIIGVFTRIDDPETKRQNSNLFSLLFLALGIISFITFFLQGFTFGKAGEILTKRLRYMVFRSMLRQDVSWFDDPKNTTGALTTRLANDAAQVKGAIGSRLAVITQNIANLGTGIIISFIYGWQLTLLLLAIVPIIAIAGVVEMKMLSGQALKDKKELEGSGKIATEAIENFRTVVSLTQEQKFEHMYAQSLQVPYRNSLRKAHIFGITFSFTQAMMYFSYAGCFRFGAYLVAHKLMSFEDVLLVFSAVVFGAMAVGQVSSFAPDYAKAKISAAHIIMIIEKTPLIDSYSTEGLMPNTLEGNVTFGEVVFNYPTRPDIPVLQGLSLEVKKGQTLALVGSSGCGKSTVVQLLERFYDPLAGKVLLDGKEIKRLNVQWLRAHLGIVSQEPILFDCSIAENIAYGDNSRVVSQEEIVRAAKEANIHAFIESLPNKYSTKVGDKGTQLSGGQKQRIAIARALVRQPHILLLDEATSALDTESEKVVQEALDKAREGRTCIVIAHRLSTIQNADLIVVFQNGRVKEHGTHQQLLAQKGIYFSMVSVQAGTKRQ
test name: MDR1-MDCK permeability and efflux assay (Papp, efflux ratio, effective efflux ratio)
Type: in vitro ADME
experimental context: dog, MDCK-MDR1, pH 7.4, Papp B>A/Papp A>B, MDR1-MDCK cells; read-out: ER MDR1 (Efflux Ratio)

Request: Supply recorded efflux ratio at 1 h, 10 μM for O=C(N1CC2(C1)CN(c1ccccn1)C2)N1CCOCc2cc(Cl)ccc21 here.
Result: 2 to 3

Request: Supply recorded efflux ratio at 1 h, 10 μM for CC1COc2cc(F)ccc2N1C(=O)N1CC2(C1)CN(c1noc3ccccc13)C2 (single isomer, unassigned) [4-3-B] here.
Result: < 1

Request: Supply recorded efflux ratio at 1 h, 10 μM for COc1ccnc(N2CC3(CN(C(=O)N4c5ccc(Cl)cc5OCC4C)C3)C2)c1 (centres unmarked) [20-8] here.
Result: < 1

Request: Supply recorded efflux ratio at 1 h, 10 μM for Cc1nccnc1N1CC2(CN(C(=O)N3c4ccc(Cl)cc4OCC3C)C2)C1 (centres unmarked) [20-10] here.
Result: < 1

Request: Supply recorded efflux ratio at 1 h, 10 μM for O=C(N1CC2(C1)CN(c1cc(F)ccn1)C2)N1CCOc2cc(Cl)ccc21 here.
Result: 1 to 2

Request: Supply recorded efflux ratio at 1 h, 10 μM for CC1COc2cc(Cl)ccc2N1C(=O)N1CC2(C1)CN(c1ccccn1)C2 (centres unmarked) [1-60] here.
Result: < 1

Request: Supply recorded efflux ratio at 1 h, 10 μM for O=C(N1CC2(C1)CN(c1ccccn1)C2)N1CCC(O)c2cc(Cl)ccc21 (single isomer, unassigned) here.
Result: > 3

Request: Supply recorded efflux ratio at 1 h, 10 μM for CC1COc2cc(Cl)ccc2N1C(=O)N1CC2(C1)CN(c1ncccn1)C2 (single isomer, unassigned) here.
Result: 1 to 2

---

Assignment: determine reported Papp A→B at 1 h, 10 μM for the given compounds.
system: MDR1 (P-glycoprotein) (Homo sapiens)
Construct: host or cells: MDCK (MDR1-MDCK; wild-type MDCK as comparator)
test name: MDR1-MDCK permeability and efflux assay (Papp, efflux ratio, effective efflux ratio)
Type: in vitro ADME
experimental context: dog, pH 7.4; A->B, MDR1-MDCK cells; read-out: Papp AB MDR1

Request: Answer briefly: Papp A→B at 1 h, 10 μM recorded on MDR1 (P-glycoprotein) (Homo sapiens) for O=C(N1CC2(C1)CN(c1ccc(F)cn1)C2)N1CCC(O)c2cc(Cl)ccc21 (stereo not shown) [13-1]
Result: > 20 ×10⁻⁶ cm/s

Request: Answer briefly: Papp A→B at 1 h, 10 μM recorded on MDR1 (P-glycoprotein) (Homo sapiens) for COc1ccnc(N2CC3(CN(C(=O)N4c5ccc(Cl)cc5OCC4C)C3)C2)n1 (stereo not shown) [20-9]
Result: > 20 ×10⁻⁶ cm/s

Request: Answer briefly: Papp A→B at 1 h, 10 μM recorded on MDR1 (P-glycoprotein) (Homo sapiens) for COc1ccnc(N2CC3(CN(C(=O)N4c5ccc(Cl)cc5OCC4C)C3)C2)c1 (stereo not shown) [20-8]
Result: > 20 ×10⁻⁶ cm/s

Request: Answer briefly: Papp A→B at 1 h, 10 μM recorded on MDR1 (P-glycoprotein) (Homo sapiens) for CC1COc2cc(Cl)c(F)cc2N1C(=O)N1CC2(C1)CN(c1ncccn1)C2 (single isomer, unassigned) [19-2-B]
Result: > 20 ×10⁻⁶ cm/s

---

Assignment: determine reported pIC50 for the given compounds.
system: human Arginine Vasopressin Receptor 1a (AVPR1a) (Homo sapiens)
Sequence (P37288 whole entry): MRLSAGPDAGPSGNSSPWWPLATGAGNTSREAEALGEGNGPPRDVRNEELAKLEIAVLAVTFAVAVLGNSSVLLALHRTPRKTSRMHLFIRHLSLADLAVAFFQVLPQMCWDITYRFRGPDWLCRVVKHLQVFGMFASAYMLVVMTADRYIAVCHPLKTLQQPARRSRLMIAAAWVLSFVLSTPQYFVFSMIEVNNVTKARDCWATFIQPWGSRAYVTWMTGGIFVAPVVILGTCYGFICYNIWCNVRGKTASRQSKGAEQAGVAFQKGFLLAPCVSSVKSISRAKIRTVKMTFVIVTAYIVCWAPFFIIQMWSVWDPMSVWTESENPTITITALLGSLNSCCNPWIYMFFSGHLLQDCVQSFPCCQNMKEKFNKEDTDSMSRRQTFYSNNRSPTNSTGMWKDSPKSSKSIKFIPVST
test name: Vasopressin V1a receptor antagonist assay (FLIPR calcium, CHO-AVPR1a cells)
pIC50: −log10 of the molar value.

Request: Supply recorded pIC50 for O=C(N1CC2(C1)CN(c1cccc(F)n1)C2)N1CCc2cc(Cl)ccc21 [1-78] here.
Result: > 7.00

Request: Supply recorded pIC50 for COc1ncccc1N1CC2(CN(C(=O)N3CCOc4cc(Cl)ccc43)C2)C1 [1-8] here.
Result: 6.30 to 7.00

Request: Supply recorded pIC50 for CC1COc2cc(Cl)c(F)cc2N1C(=O)N1CC2(C1)CN(c1cccnn1)C2 (centres unmarked) [19-4] here.
Result: > 7.00

Request: Supply recorded pIC50 for CN1CCN(C(=O)N2CC3(C2)CN(c2ccc(F)cn2)C3)c2ccc(F)cc21 [8-8] here.
Result: > 7.00

Request: Supply recorded pIC50 for CCC1COc2cc(Cl)ccc2N1C(=O)N1CC2(C1)CN(c1ccc(F)cn1)C2 (centres unmarked) [1-55] here.
Result: > 7.00

---

system: human Arginine Vasopressin Receptor 1a (AVPR1a) (Homo sapiens)
test name: Vasopressin V1a receptor antagonist assay (FLIPR calcium, CHO-AVPR1a cells)
readout kind: IC50

Request: Supply recorded IC50 for COc1ccnc(N2CC3(CN(C(=O)N4CCOc5cc(Cl)ccc54)C3)C2)c1 here.
Result: < 100 nM

Request: Supply recorded IC50 for COc1cccnc1N1CC2(CN(C(=O)N3CCOc4cc(Cl)ccc43)C2)C1 here.
Result: < 100 nM

Request: Supply recorded IC50 for Cc1ccc(N2CC3(CN(C(=O)N4CCOc5cc(Cl)ccc54)C3)C2)nc1 here.
Result: < 100 nM

Request: Supply recorded IC50 for CC1COc2cc(F)c(F)cc2N1C(=O)N1CC2(C1)CN(c1ncccn1)C2 (stereo not drawn) [19-1] here.
Result: < 100 nM

Request: Supply recorded IC50 for Cc1nccc(N2CC3(CN(C(=O)N4c5ccc(Cl)cc5OCC4C)C3)C2)n1 (stereo not drawn) here.
Result: < 100 nM

Request: Supply recorded IC50 for COc1cnc(N2CC3(CN(C(=O)N4CCOc5cc(Cl)ccc54)C3)C2)cn1 here.
Result: < 100 nM

Request: Supply recorded IC50 for Cc1cc(F)cnc1N1CC2(CN(C(=O)N3CCOc4cc(Cl)ccc43)C2)C1 here.
Result: < 100 nM

Request: Supply recorded IC50 for O=C(N1CC2(C1)CN(c1ccncn1)C2)N1CCOc2cc(Cl)ccc21 here.
Result: 100 to 500 nM

Request: Supply recorded IC50 for COc1ccnc(N2CC3(CN(C(=O)N4c5ccc(Cl)cc5OCC4C)C3)C2)n1 (single isomer, unassigned) [20-9-A] here.
Result: ≥ 1000 nM

---

system: human Arginine Vasopressin Receptor V2 (AVPR2) (Homo sapiens)
Sequence (P30518 whole entry): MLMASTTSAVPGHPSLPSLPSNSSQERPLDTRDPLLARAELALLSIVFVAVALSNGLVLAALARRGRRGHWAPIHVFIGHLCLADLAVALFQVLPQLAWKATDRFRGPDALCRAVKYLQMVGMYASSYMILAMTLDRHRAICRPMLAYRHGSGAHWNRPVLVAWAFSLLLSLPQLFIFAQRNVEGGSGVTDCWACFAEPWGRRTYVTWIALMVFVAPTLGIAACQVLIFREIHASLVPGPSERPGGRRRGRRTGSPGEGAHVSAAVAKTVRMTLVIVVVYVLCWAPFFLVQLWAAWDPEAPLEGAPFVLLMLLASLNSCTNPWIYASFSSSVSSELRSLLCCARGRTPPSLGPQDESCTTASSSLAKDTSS
test name: Vasopressin V2 receptor antagonist assay (TR-FRET cAMP, 1321N1 cells)
pIC50: −log10 of the molar value.
readout kind: pIC50

Request: Supply recorded pIC50 for Cc1nccc(N2CC3(CN(C(=O)N4c5ccc(Cl)cc5OCC4C)C3)C2)n1 (centres unmarked) here.
Result: 6.30 to 7.00

Request: Supply recorded pIC50 for O=C(N1CC2(C1)CN(c1ccc(F)cn1)C2)N1CCC(F)c2cc(Cl)ccc21 (centres unmarked) here.
Result: ≤ 6.00

Request: Supply recorded pIC50 for O=C(N1CC2(C1)CN(c1noc3ccccc13)C2)N1CCOc2cc(Cl)ccc21 here.
Result: ≤ 6.00

Request: Supply recorded pIC50 for COc1ccnc(N2CC3(CN(C(=O)N4c5ccc(Cl)cc5OCC4C)C3)C2)n1 (single isomer, unassigned) [20-9-B] here.
Result: 6.30 to 7.00

Request: Supply recorded pIC50 for CC1COc2cc(Cl)c(F)cc2N1C(=O)N1CC2(C1)CN(c1cccnn1)C2 (single isomer, unassigned) [19-4-A] here.
Result: ≤ 6.00

Request: Supply recorded pIC50 for Cc1ccnc(N2CC3(CN(C(=O)N4CCOc5cc(Cl)ccc54)C3)C2)c1 here.
Result: ≤ 6.00

Request: Supply recorded pIC50 for O=C(N1CC2(C1)CN(c1ccccn1)C2)N1CCC(O)c2cc(Cl)ccc21 (single isomer, unassigned) [13-2-A] here.
Result: ≤ 6.00

Request: Supply recorded pIC50 for CCC1COc2cc(Cl)ccc2N1C(=O)N1CC2(C1)CN(c1ccccn1)C2 (centres unmarked) here.
Result: > 7.00

Request: Supply recorded pIC50 for O=C(N1CC2(C1)CN(c1cnccn1)C2)N1CCOCc2cc(Cl)ccc21 here.
Result: ≤ 6.00

Request: Supply recorded pIC50 for Cc1cncc(N2CC3(CN(C(=O)N4c5ccc(Cl)cc5OCC4C)C3)C2)n1 (centres unmarked) here.
Result: > 7.00

Request: Supply recorded pIC50 for COc1nccnc1N1CC2(CN(C(=O)N3CCOc4cc(Cl)ccc43)C2)C1 here.
Result: ≤ 6.00

Request: Supply recorded pIC50 for Cc1cnnc(N2CC3(CN(C(=O)N4c5ccc(Cl)cc5OCC4C)C3)C2)c1 (centres unmarked) here.
Result: 6.30 to 7.00

Request: Supply recorded pIC50 for CC1CN(C(=O)N2CC3(C2)CN(c2ccc(F)cn2)C3)c2ccc(F)cc2O1 (single isomer, unassigned) here.
Result: ≤ 6.00

Request: Supply recorded pIC50 for N#Cc1ccnc(N2CC3(CN(C(=O)N4CCOc5cc(Cl)ccc54)C3)C2)c1 here.
Result: ≤ 6.00

Request: Supply recorded pIC50 for Cc1cnc(N2CC3(CN(C(=O)N4CCOc5cc(Cl)ccc54)C3)C2)cn1 here.
Result: ≤ 6.00

Request: Supply recorded pIC50 for CC1COc2cc(F)c(F)cc2N1C(=O)N1CC2(C1)CN(c1ccc(F)cn1)C2 (single isomer, unassigned) [19-5-B] here.
Result: > 7.00

Request: Supply recorded pIC50 for CC1COc2cc(Cl)ccc2N1C(=O)N1CC2(C1)CN(c1nccc(C(F)(F)F)n1)C2 (centres unmarked) here.
Result: 6.30 to 7.00
